Molecular target: purified DHFR of strain 157/4696 of Staphylococcus aureus (Staphylococcus aureus, UniProt P13955)
Sequence (P13955 whole entry): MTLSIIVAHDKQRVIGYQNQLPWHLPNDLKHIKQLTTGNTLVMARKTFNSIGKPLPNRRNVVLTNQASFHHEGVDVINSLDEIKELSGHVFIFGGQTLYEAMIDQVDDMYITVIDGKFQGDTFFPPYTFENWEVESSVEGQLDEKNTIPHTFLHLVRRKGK
Assay: biochemical

{"columns": ["compound", "IC50 [nM]"],
 "data": [
  ["CCOc1cc(Cc2cnc(N)nc2N)cc(OS(C)(=O)=O)c1-c1ccc(OC)cc1", 310],
  ["CCOc1cc(Cc2cnc(N)nc2N)cc(OCC)c1-c1ccc(NC(C)=O)c(C)c1", 1800],
  ["CCOc1cc(Cc2cnc(N)nc2N)cc(OCC2CCC2)c1-c1ccc2c(c1)OCO2", 1400],
  ["CCOc1cc(Cc2cnc(N)nc2N)cc(OCCC2CCOCC2)c1-c1ccc(O)cc1", 950],
  ["CCOc1cc(Cc2cnc(N)nc2N)cc(OCC)c1-c1ccc(O)cc1", 1100],
  ["CCOc1cc(Cc2cnc(N)nc2N)cc(OS(=O)(=O)N(C)C2CC2)c1-c1ccc(N)cc1 [Example 22e]", 150],
  ["CCOc1cc(Cc2cnc(N)nc2N)cc(OCC)c1-c1cccc(C#N)c1", 4000],
  ["CCOc1cc(Cc2cnc(N)nc2N)cc(OCC)c1-c1ccc(CN2CCOCC2)nc1", 2100],
  ["CCOc1cc(Cc2cnc(N)nc2N)cc(OCC)c1-c1ccc(C)c(N)c1", 2000],
  ["CCOc1cc(Cc2cnc(N)nc2N)cc(OCC)c1-c1ccc(COCC(=O)N2CCCCC2)s1", 2000],
  ["CCOc1cc(Cc2cnc(N)nc2N)cc(OS(=O)(=O)N(C)C)c1-c1ccc(CN(C)CCF)cc1", 170],
  ["CCOc1cc(Cc2cnc(N)nc2N)cc(OS(=O)(=O)C(C)C)c1-c1ccc(OC(C)=O)cc1", 55],
  ["CCOc1cc(Cc2cnc(N)nc2N)cc(OCCC2CCCCO2)c1-c1ccc(O)cc1 (racemic)", 2400],
  ["CCOc1cc(Cc2cnc(N)nc2N)cc(OCC)c1-c1cccc(C=O)c1", 1900],
  ["CCOc1cc(Cc2cnc(N)nc2N)cc(OCC2CC2)c1-c1ccc(OCCO)cc1", 1700],
  ["CCOc1cc(Cc2cnc(N)nc2N)cc(OCC)c1-c1ccc(O)c(F)c1", 1600],
  ["CCOc1cc(Cc2cnc(N)nc2N)cc(OCC)c1-c1ccc2[nH]ncc2c1", 650],
  ["CCOc1cc(Cc2cnc(N)nc2N)cc(OS(=O)(=O)C(C)CC)c1-c1ccc(O)cc1 (stereo not drawn)", 39],
  ["CCOc1cc(Cc2cnc(N)nc2N)cc(OS(=O)(=O)N(C)C2CC2)c1-c1ccc(CN2CCOCC2)c(N)c1", 37],
  ["CCOc1cc(Cc2cnc(N)nc2N)cc(OCC)c1-c1ccc(OC)cc1", 1500],
  ["CCOc1cc(Cc2cnc(N)nc2N)cc(OS(C)(=O)=O)c1-c1ccc(O)cc1", 550],
  ["CCCS(=O)(=O)Oc1cc(Cc2cnc(N)nc2N)cc(OCC)c1-c1cccc(N)c1", 82],
  ["CCOc1cc(Cc2cnc(N)nc2N)cc(OCC)c1-c1ccco1", 2200],
  ["CCOc1cc(Cc2cnc(N)nc2N)cc(OS(=O)(=O)CC)c1-c1ccc(OC)cc1", 100],
  ["CCOc1cc(Cc2cnc(N)nc2N)cc(OS(=O)(=O)C(C)C)c1-c1ccc(OC)cc1", 260],
  ["CCOc1cc(Cc2cnc(N)nc2N)cc(OS(=O)(=O)CC(C)C)c1-c1ccc(N)c(C)c1", 32],
  ["CCOc1cc(Cc2cnc(N)nc2N)cc(OCC(C)C)c1-c1ccc2c(c1)OCO2", 5000],
  ["CCOc1cc(Cc2cnc(N)nc2N)cc(OS(C)(=O)=O)c1-c1ccc(CN2CCOCC2)c(F)c1", 1500],
  ["CCOc1cc(Cc2cnc(N)nc2N)cc(OCC(C)(C)COC)c1-c1ccc(OC)cc1", 3100],
  ["CCCOc1cc(Cc2cnc(N)nc2N)cc(OCCC)c1-c1cccc(O)c1", 5800],
  ["CCOc1cc(Cc2cnc(N)nc2N)cc(OS(=O)(=O)CC(C)(C)C)c1-c1ccc(N)c(F)c1", 550],
  ["CCOc1cc(Cc2cnc(N)nc2N)cc(OCC)c1-c1ccc(CN(C)CCF)c(F)c1", 2700],
  ["CCOc1cc(Cc2cnc(N)nc2N)cc(OS(=O)(=O)N2CCCC2)c1-c1ccc(O)cc1", 180]
]}
